Documented pIC50 across a set of compounds
- Test system: MOLM-14
- Protocol Text: Inhibition of cell viability in human MOLM-14 cells incubated for 48 hrs by Alamar blue assay
- Type: functional, cell-based
- Run Parameters: MOLM-14, 48 h
Quick note: pIC50 values are minus log10 of concentrations in mol/L.

| Compound | Assay Target | pIC50 |
| --- | --- | --- |
| CCc1nc(C(N)=O)c(Nc2ccc(N3CCN(C(=O)CCCCCCNc4ccc(S(=O)(=O)NC(=O)c5ccc(N6CCN(CC7=C(c8ccc(Cl)cc8)CC(C)(C)CC7)CC6)cc5Oc5cnc6[nH]ccc6c5)cc4[N+](=O)[O-])CC3)c(OC)c2)nc1NC1CCOCC1 | MOLM-14 | 6.27 |
| CCc1nc(C(N)=O)c(Nc2ccc(N3CCN(C(=O)CNc4ccc(S(=O)(=O)NC(=O)c5ccc(N6CCN(CC7=C(c8ccc(Cl)cc8)CC(C)(C)CC7)CC6)cc5Oc5cnc6[nH]ccc6c5)cc4[N+](=O)[O-])CC3)c(OC)c2)nc1NC1CCOCC1 | MOLM-14 | 6.58 |
| CC1(C)CCC(CN2CCN(c3ccc(C(=O)NS(=O)(=O)c4ccc(NCC5CCOCC5)c([N+](=O)[O-])c4)c(Oc4cnc5[nH]ccc5c4)c3)CC2)=C(c2ccc(Cl)cc2)C1 [VENETOCLAX] | MOLM-14 | 5.77 |

Find the measured pIC50 of CCc1nc(C(N)=O)c(Nc2ccc(N3CCC(N4CCN(C)CC4)CC3)c(OC)c2)nc1NC1CCOCC1 [GILTERITINIB] and report it.
7.59

* * *

- Tested on: MV4-11
- Protocol Text: Inhibition of cell viability in human MV4-11 cells incubated for 48 hrs by Alamar blue assay
- Type: functional, cell-based
- Run Parameters: MV4-11, 48 h
Rule for this label: 1 means IC50 is less than 50 nM; 0 means IC50 is at least 50 nM.

| Smi | Class Name |
| --- | --- |
| CCc1nc(C(N)=O)c(Nc2ccc(N3CCC(N4CCN(C)CC4)CC3)c(OC)c2)nc1NC1CCOCC1 | 1 |
| CCc1nc(C(N)=O)c(Nc2ccc(N3CCC(N4CCN(C(=O)C5CCN(c6ccc(S(=O)(=O)NC(=O)c7ccc(N8CCN(CC9=C(c%10ccc(Cl)cc%10)CC(C)(C)CC9)CC8)cc7Oc7cnc8[nH]ccc8c7)cc6[N+](=O)[O-])CC5)CC4)CC3)c(OC)c2)nc1NC1CCOCC1 | 0 |
| CCc1nc(C(N)=O)c(Nc2ccc(N3CCN(C(=O)C4CCN(c5ccc(S(=O)(=O)NC(=O)c6ccc(N7CCN(CC8=C(c9ccc(Cl)cc9)CC(C)(C)CC8)CC7)cc6Oc6cnc7[nH]ccc7c6)cc5[N+](=O)[O-])CC4)CC3)c(OC)c2)nc1NC1CCOCC1 | 0 |
| CCc1nc(C(N)=O)c(Nc2ccc(N3CCN(C(=O)CCCCCCNc4ccc(S(=O)(=O)NC(=O)c5ccc(N6CCN(CC7=C(c8ccc(Cl)cc8)CC(C)(C)CC7)CC6)cc5Oc5cnc6[nH]ccc6c5)cc4[N+](=O)[O-])CC3)c(OC)c2)nc1NC1CCOCC1 | 0 |
| CCc1nc(C(N)=O)c(Nc2ccc(N3CCN(C(=O)CNc4ccc(S(=O)(=O)NC(=O)c5ccc(N6CCN(CC7=C(c8ccc(Cl)cc8)CC(C)(C)CC7)CC6)cc5Oc5cnc6[nH]ccc6c5)cc4[N+](=O)[O-])CC3)c(OC)c2)nc1NC1CCOCC1 | 0 |

For this compound, is IC50 lower than 50 nM? CCc1nc(C(N)=O)c(Nc2ccc(N3CCC(N4CCN(C(=O)CCCCCCNc5ccc(S(=O)(=O)NC(=O)c6ccc(N7CCN(CC8=C(c9ccc(Cl)cc9)CC(C)(C)CC8)CC7)cc6Oc6cnc7[nH]ccc7c6)cc5[N+](=O)[O-])CC4)CC3)c(OC)c2)nc1NC1CCOCC1
0

Lab log: compare recorded IC50 with 50 nM; is it strictly lower for CCc1nc(C(N)=O)c(Nc2ccc(N3CCC(N4CCN(C(=O)CNc5ccc(S(=O)(=O)NC(=O)c6ccc(N7CCN(CC8=C(c9ccc(Cl)cc9)CC(C)(C)CC8)CC7)cc6Oc6cnc7[nH]ccc7c6)cc5[N+](=O)[O-])CC4)CC3)c(OC)c2)nc1NC1CCOCC1 ?
1
